- System: SR leukemia
- method notes: NCI-60 one-dose screen, 48 h (100 = growth as untreated, 0 = no growth, -100 = all killed)
- condition notes: 10 µM unless noted
Compounds without any hit were thinned out: in the full panel of roughly 83,000, 20% have a hit. The source made the active and inactive calls. Rule for the calls: active = growth percent below 10; inactive = the rest.
readout: growth

INSERT INTO assay_data (molecule, observed_result) VALUES
  ('COc1ccc(C2CC(=O)c3c(O)c(OC)c(OC)c(OC)c3O2)cc1O (centres undefined)', '22.7% (inactive)'),
  ('CC1(C)NC(=O)c2[nH]c3c(Cl)c(Cl)ccc3c2C1C#N (centres undefined)', '67.5% (inactive)'),
  ('CC(=O)OC(C(=O)c1ccccc1)c1ccccc1 (centres undefined)', '106% (inactive)'),
  ('Nc1c(C(=O)c2ccccc2)sc2nc(-c3cccs3)cc(-c3cccs3)c12', '24.4% (inactive)'),
  ('CCc1nc2ccc(Cc3ccc(C(=O)NO)cc3)cc2c(=O)n1CCc1ccccc1', '2.05% (active)'),
  ('O=C1NC(=O)C(c2cnc3ccccn23)=C1c1cn2c3c(cc(F)cc13)CN(C(=O)N1CCCCC1)CC2', '10% (inactive)'),
  ('COC[C@@H](C)n1c(C2CCOCC2)nc2c1C1C=C(OC)C(c3c(C)noc3C)=CC1N=C2 (some centres undefined)', '31.1% (inactive)'),
  ('COc1cc2ncnc(Nc3ccc(F)c(Cl)c3)c2cc1NC(=O)/C=C/CN1CCCCC1', '-14.5% (active)'),
  ('Cc1cccc(NC(=O)[C@@H]2c3ccccc3C(=O)N(c3ccc(Cl)cc3)[C@H]2c2ccc(Cl)cc2)n1', '34.5% (inactive)'),
  ('CC/C(=C(\c1ccc(OCCN2CCCCCCC2)cc1)c1ccc(OC(=O)C2CCCCC2)cc1)c1ccc(Cl)cc1', '78.5% (inactive)'),
  ('Cc1ccc(NC(=O)Nc2ccc(Nc3ncnc4sc5c(c34)CCOC5)cc2)cc1Cl', '89% (inactive)'),
  ('CC(C)=CCc1cc2c(cc1O)C1=C(C(=O)C3=C(NCCS3(=O)=O)C1=O)C(C=C(C)C)O2 (centres undefined)', '6.83% (active)'),
  ('CN1C/C=C\CCOc2cccc(c2)-c2ccnc(n2)Nc2cccc(c2)C1', '-29.1% (active)'),
  ('COc1cc2nc(Nc3cccc(Cl)c3)nc(N)c2cc1OC', '67.4% (inactive)'),
  ('CCN(CC)CCNc1ccc(N=Nc2cnc3ccccc3c2)c2ccccc12', '-53.1% (active)'),
  ('C=C1C(=O)O[C@H]2[C@H]1CC/C(C=Nc1c(N)cc(C(F)(F)F)cc1C(F)(F)F)=C\CC[C@@]1(C)O[C@@H]21', '0.897% (active)'),
  ('COc1ccc(-n2c(=O)c3ccccc3n(Cc3ccc(C(=O)NO)cc3)c2=O)cc1', '7.16% (active)'),
  ('COC(=O)c1ccc2c(C(=Nc3ccc(N(C)C(=O)CN4CCN(C)CC4)cc3)c3ccccc3)c(O)[nH]c2c1', '6.5% (active)'),
  ('CCCCCCCC(=O)SCC/C=C/[C@@H]1CC(=O)NCc2cccc(n2)C2=N[C@@](C)(CS2)C(=O)N[C@@H](C(C)C)C(=O)O1', '13.7% (inactive)'),
  ('CO[C@H]1C[C@@H]2CC[C@@H](C)[C@@](O)(O2)C(=O)C(=O)N2CCCC[C@H]2C(=O)O[C@H]([C@H](C)C[C@@H]2CC[C@@H](OP(C)(C)=O)[C@H](OC)C2)CC(=O)[C@H](C)/C=C(\C)[C@@H](O)[C@@H](OC)C(=O)[C@H](C)C[C@H](C)\C=C/C=C/C=C/1C', '13.1% (inactive)'),
  ('CC1(O)CCC(Nc2cc(-c3ccc(C(F)(F)F)cc3)c(C#N)c3nc4ccccc4n23)CC1 (centres undefined)', '79.4% (inactive)'),
  ('COc1cc(NCCN(CC(C)C)CC(C)C)c2ncc(C)cc2c1', '76.3% (inactive)'),
  ('O=C1CC(c2ccc(Cl)cc2)c2ncn(-c3cccc(Cl)c3)c2N1 (centres undefined)', '27.3% (inactive)'),
  ('Cn1cnc2c(F)c(Nc3ccc(Br)cc3Cl)c(C(=O)NOCCO)cc21', '75% (inactive)'),
  ('COc1ccc(/C(C)=C(\c2ccc(Cl)cc2)c2ccc(OCCN3CCCCCC3)cc2)cc1', '1.94% (active)'),
  ('COC(=O)CCCNc1c(-c2c(O)c(O)cc3c(O)c(-c4c(C)cc5c(-c6nc7ccccn7c6NCCCC(=O)OC)c(O)c(O)cc5c4O)c(C)cc23)nc2ccccn12', '24.3% (inactive)'),
  ('CC(=O)NCC(=O)N1[C@@H]2CC[C@H]1c1ccc(Nc3ncc(C(F)(F)F)c(NC4CCC4)n3)cc12', '2.18% [2.5 µM] (active)'),
  ('COc1ccc2c(CCCCC(c3ccccc3)c3ccccc3)c3[n+](cc2c1OC)CCc1cc2c(cc1-3)OCO2', '-35.8% (active)'),
  ('CCc1cnn2c(NCc3ccc[n+]([O-])c3)cc(N3CCCC[C@H]3CCO)nc12', '-17.3% (active)');
